Reference for the values: PubChem BioAssay (NCI)

- Tested on: LOX IMVI melanoma
- assay.protocol: NCI tumour cell line growth inhibition, 48 h
parameter.measured: TGI

Worked cases, answers included:
compound	reading
O=c1c2c([N+](=O)[O-])cccc2nc2[nH]c3ccccc3n12	> 75 µM
CN(O)C(=O)c1cccc(Cl)c1	> 100 µM
CC(=O)O[C@H](C[C@H](C(C)C)N(C)C(=O)[C@@H](NC(=O)[C@H]1CCCCN1C)C(C)C)c1nc(C(=O)N[C@@H](Cc2ccccc2)C[C@H](C)C(=O)O)c(CCOCc2ccccc2)s1	> 10 µM
CNC(=O)Oc1ccc(-c2cn3cc(OC(=O)NC)ccc3n2)cc1	> 100 µM
O=C(O)c1ccc(S(=O)(=O)c2ccccc2[N+](=O)[O-])cc1	> 10 µM
Cc1cn(C(Cc2ccccc2)OCCO)c(=O)[nH]c1=O (stereo unspecified)	> 100 µM
COC(=O)OCC1OC(N2C(=O)NC(=O)C(Br)C2N=[N+]=[N-])CC1OC(=O)OC (stereo unspecified)	> 100 µM
CC(C)OC(=O)NNc1cc(Cl)ccc1Cl	> 100 µM

Challenge: Name the reported TGI value associated with the compound N=C(N)SCc1cccc(-c2nc3ccccc3c(=O)o2)c1
Response given: > 100 µM

Challenge: Follow-up entry: Cc1ccc2nc(Cl)c(/C=N/N3C(=O)/C(=C/c4ccccc4S)N=C3c3ccccc3)cc2c1
Response given: > 100 µM

Challenge: Can you handle NCCN=C(Nc1ccccc1)Nc1ccccc1 next?
Response given: > 100 µM

###

Overview of recorded TGI for various compounds
- Tested on: M19-MEL melanoma
- assay.protocol: NCI tumour cell line growth inhibition, 48 h

Previously resolved entries follow.
> print(dat)
                                   compound   reading
1  COc1cccc(-n2c3nc(=O)n(C)c(=O)c-3nc3ccccc32)c1    6.1 µM
2  COC(=O)OCC1OC(N2C(=O)NC(=O)C(Br)C2N=[N+]=[N-])CC1OC(=O)OC (stereo not drawn)  > 100 µM

For the next question, use this compound.
Challenge: Need TGI, item CC(=O)OC1CC2C(C)(C)OC(=O)CC(OC(C)=O)[C@]2(C)C2CCC3(C)C(=CCC3[C@H]3COC(=O)C3)[C@]12C (stereo partly drawn)
Response given: > 100 µM

###

As shown below, each of these compounds has a reported TGI value.
- Tested on: NCI/ADR-RES ovarian
- assay.protocol: NCI tumour cell line growth inhibition, 48 h

Example compounds with recorded TGI:
compound	parameter.measured	reading
Cc1ccc(/C(O)=C/C(=O)C(=O)/C=C(\O)c2ccc(C)cc2C)c(C)c1	TGI	4.12 µM
O=c1nc2c(c(-c3ccccc3Cl)[nH]1)COC/C2=C\c1ccccc1Cl	TGI	> 100 µM
CC(=O)O[C@H](C[C@H](C(C)C)N(C)C(=O)[C@@H](NC(=O)[C@H]1CCCCN1C)C(C)C)c1nc(C(=O)N[C@@H](Cc2ccccc2)C[C@H](C)C(=O)O)c(CCOCc2ccccc2)s1	TGI	0.0511 µM
CC(C)CNC(=O)O	TGI	> 100 µM
NCCN=C(Nc1ccccc1)Nc1ccccc1	TGI	> 100 µM
[Au+].[Au+].[Au+].[c-]1nccn1Cc1ccccc1.[c-]1nccn1Cc1ccccc1.[c-]1nccn1Cc1ccccc1	TGI	> 100 µM
Nc1nc(SN=Nc2ccc(S(N)(=O)=O)cc2)c2[nH]cnc2n1	TGI	> 100 µM
CC1CCC(=O)C(C(=O)CC2CC(=O)NC(=O)C2)C1 (stereo not drawn)	TGI	> 100 µM

Challenge: Using the record for CC(=O)/C=C/c1ccc(C#Cc2ccccc2)s1 , report its TGI.
Response given: 33.9 µM

Challenge: Please give the result for O=C(/C=C/c1cc(CN2CCOCC2)c(O)c2ncccc12)c1cc(CN2CCOCC2)c(O)c2ncccc12 too.
Response given: > 100 µM

Challenge: What do we get for CCOP(=O)(OCC)c1c(C(=O)OC)cc(=O)[nH]c1-c1ccc(C)cc1 ?
Response given: > 57.5 µM

###

As shown below, each of these molecules has a reported TGI value.
- System: T-47D breast
- assay.protocol: NCI tumour cell line growth inhibition, 48 h

Solved entries:
> print(dat)
                                   molecule  parameter.measured   reading
1  COc1ccc2ncn(-c3cc(O[C@H](C)c4ccccc4Cl)c(C(N)=O)s3)c2c1                 TGI    8.3 µM
2      CCOC(=O)/C=C(/C(=O)OCC)n1ccc(N)nc1=O                 TGI  > 100 µM
3           CC(=O)/C=C/c1ccc(C#Cc2ccccc2)s1                 TGI   28.4 µM
4  O=c1c2c([N+](=O)[O-])cccc2nc2[nH]c3ccccc3n12                 TGI   63.4 µM
5  CNC(=O)Oc1ccc(-c2cn3cc(OC(=O)NC)ccc3n2)cc1                 TGI  > 100 µM

Challenge: What value of TGI has been recorded for this entry: C[C@]12CC[C@H](O)C[C@H]1CC[C@@H]1[C@@H]2CC[C@]2(C)[C@@H](C3=CC(=O)OC3)CC[C@]12O
Response given: 0.858 µM

Challenge: Moving on to COc1cc2ncn(-c3cc(OCCc4ccccc4)c(C(N)=O)s3)c2cc1OC
Response given: > 25 µM

###

- Test system: MDA-MB-231 breast
- assay.protocol: NCI tumour cell line growth inhibition, 48 h
This listing pairs compounds with measured TGI.

Challenge: Requested read-out: TGI. Entry: N#Cc1c(-c2ccccc2)nc(-c2ccccc2)sc1=S
Response given: > 100 µM

Challenge: Also CC1CCOc2ccc(cc2)C=Nc2ccc(cc2)CCc2ccc(cc2)N=Cc2ccc(cc2)OCC1 (stereo not given) , if possible.
Response given: > 100 µM

Challenge: Would you kindly repeat that for CCc1ccccc1NC(=O)c1sc2nc3c(cc2c1N)C(=O)CCC3 ?
Response given: > 100 µM

Challenge: Next record, please: O=c1[nH]cnc2cccc(Cl)c12
Response given: > 100 µM

Challenge: Now consider CC1=NN(c2ccc(S(=O)(=O)O)cc2)C2(C1)SCC(=O)N2c1nc2ccccc2s1 (stereo not given) and answer again.
Response given: > 100 µM

Challenge: Entry CCn1c(CO)nn(-c2cc(O[C@@H](C)C(F)(F)F)c(C(=O)Nc3c(F)cccc3Cl)cc2F)c1=O please
Response given: > 100 µM

Challenge: Continue with C/C=C/C(O)P1(=O)N(Cc2ccccc2)[C@@H]2CCCC[C@H]2N1Cc1ccccc1 (stereo not given in full)
Response given: > 25 µM

###

- Test system: NCI-H522 lung
- assay.protocol: NCI tumour cell line growth inhibition, 48 h; in the data active = GI50 below about 0.43 µM; inactive = the rest
Hi there, use one of these labels in your reply, thanks! active, inactive

// below: answered compounds
structure.notation	test.system	assigned.class
CC(=O)/C=C/c1ccc(C#Cc2ccccc2)s1	NCI-H522 lung	inactive
Cc1cc2c(cc1Cl)SC(=Nc1ccc(Cl)cc1)N(S(=O)(=O)c1ccccc1)S2(=O)=O	NCI-H522 lung	inactive
CC(=O)O[C@H](C[C@H](C(C)C)N(C)C(=O)[C@@H](NC(=O)[C@H]1CCCCN1C)C(C)C)c1nc(C(=O)N[C@@H](Cc2ccccc2)C[C@H](C)C(=O)O)c(CCOCc2ccccc2)s1	NCI-H522 lung	active

Challenge: Check the results log: what was the call for C[C@]12CCc3nc(Nc4ccccc4)sc3C1=CC[C@@H]1[C@@H]2CC[C@]2(C)/C(=N/NC(N)=S)CC[C@@H]12 ?
Response given: inactive

Challenge: # repeat for O=C(Nc1ccc(CO)cc1)c1coc2ccccc2c1=O
Response given: inactive

###

- Tested on: SK-MEL-5 melanoma
- assay.protocol: NCI tumour cell line growth inhibition, 48 h
parameter.measured: TGI

compound	reading
CN(C)Cc1cc(C(=O)/C=C/c2ccccc2Cl)cc(CN(C)C)c1O	26.1 µM

Challenge: Form field: reported TGI of CC1CCOc2ccc(cc2)C=Nc2ccc(cc2)CCc2ccc(cc2)N=Cc2ccc(cc2)OCC1 (centres undefined)
Response given: > 100 µM

Challenge: Moving on to CCC1(C(=O)OC(C)(C)C)OC12C(C)CCCC2C (centres undefined)
Response given: > 100 µM

Challenge: Input CCOC(=O)c1c[nH]c2oc(/C=N/N3CC(CN4CCOCC4)OC3=O)cc2c1=O (centres undefined)
Response given: > 100 µM

Challenge: Please do the same for COc1cc2ncn(-c3cc(OCCc4ccccc4)c(C(N)=O)s3)c2cc1OC as well.
Response given: > 25 µM

###

- Test system: HCC-2998 colon
- assay.protocol: NCI tumour cell line growth inhibition, 48 h
Recorded TGI values for a group of compounds are listed next.
Express it in µM; write the number only.

> print(dat)
                         structure.notation  parameter.measured  reading
1  Cc1c(C2=C(Br)C(=O)N(C)C2=O)c(=O)n(C)c(=O)n1C                 TGI     53.3

Challenge: Which TGI value is on record for NC(N)=NCCCCCNc1noc(Cc2c[nH]c3cc(Br)ccc23)n1 ?
Response given: 23.2

Challenge: What do you get for COC(=O)/C(C)=C/[N+](=O)[O-] ?
Response given: 32.1

Challenge: And then O=c1[nH]/c(=C/c2ccc(OCc3ccccc3)cn2)c(=O)[nH]/c1=C/c1ccc(O)cc1 , what is it?
Response given: 5.21

Challenge: Cool, now COc1ccc(C(=O)COc2cccc(/C=C3\Oc4ccc5ccccc5c4C3=O)c2)cc1
Response given: 28.8

Challenge: Now the same for NC1=NS(=O)(=O)Nc2nc(-c3ccc([N+](=O)[O-])o3)[nH]c21
Response given: 32.2
